Hey, just so you know, these numbers are from paper PMC9928118.

- System: GST-tagged Cn
- PROTOCOL SUMMARY: PEPperPRINT peptide microarray binding assay with GST-tagged Cn
- STATED CONDITIONS: max over the duplicate spots (Location on chip)
Below is a list of entries, each paired with its recorded Chip Fluorescence (max) value.
Kindly provide the number alone.

MONOMER SEQUENCE: PMKTRGLYGWPPCAKW [Seqrandom_5226]
ASSAYED SYSTEM: GST-tagged Cn
Chip Fluorescence (max): 2.284

MONOMER SEQUENCE: RTYINPFMQFTYDGRR [SeqRBMlowT_4071]
ASSAYED SYSTEM: GST-tagged Cn
Chip Fluorescence (max): 1.896

MONOMER SEQUENCE: AEVGIVRFSRHPVAQD [Seqshuffled_9961]
ASSAYED SYSTEM: GST-tagged Cn
Chip Fluorescence (max): 2.2

State its Chip Fluorescence (max) on GST-tagged Cn: TFWTNPQFRIKLEEPD [SeqRBMlowT_8]
2.218

Would you mind doing TFWSNPQFKITLEEPD [SeqRBMlowT_5528] as well?
2.1472

Would you mind doing PSLYINALGIESFTLS [SeqRBMlowT_6967] as well?
2.037

Would you mind doing TFWTNPQFKFRLEDPD [SeqRBMlowT_7471] as well?
2.466

Would you mind doing KAYMCPYGSFTYGGRR [SeqRBM_3412] as well?
2.568

Would you mind doing GGPSTPGRQNNPLAPS [SeqRTS1_Zymoseptoria_tritici] as well?
2.314

Would you mind doing PGQMQPSINVMAEKNP [SeqRBM_977] as well?
1.973

Would you mind doing TFWTNPQFKVSLEEPD [SeqRBMlowT_97] as well?
2.43

Would you mind doing TFWTNPQYKITLEDPD [SeqRBMlowT_219] as well?
2.355

Would you mind doing HDLQCVINLHENACKT [Seqrandom_9996] as well?
2.151

Would you mind doing YRQAVRFEMPLTACAP [Seqrandom_9969] as well?
2.355

Would you mind doing LRDEVPEVRLNIISDL [SeqRBM_180] as well?
2.2011

Would you mind doing KAYMCPFMQFIDGGRR [SeqRBMlowT_502] as well?
2.385

Would you mind doing ADEAVPLIDIAMAEYP [SeqRBM_3950] as well?
2.42

Would you mind doing KAYMCPYMQFIEGGRR [SeqSFB3_Ictalurus_punctatus] as well?
2.501
